target-or-test-system: tNOX of 4T1 mouse mammary cells (Mus musculus, UniProt Q8R0Z2)
Sequence (Q8R0Z2 whole entry): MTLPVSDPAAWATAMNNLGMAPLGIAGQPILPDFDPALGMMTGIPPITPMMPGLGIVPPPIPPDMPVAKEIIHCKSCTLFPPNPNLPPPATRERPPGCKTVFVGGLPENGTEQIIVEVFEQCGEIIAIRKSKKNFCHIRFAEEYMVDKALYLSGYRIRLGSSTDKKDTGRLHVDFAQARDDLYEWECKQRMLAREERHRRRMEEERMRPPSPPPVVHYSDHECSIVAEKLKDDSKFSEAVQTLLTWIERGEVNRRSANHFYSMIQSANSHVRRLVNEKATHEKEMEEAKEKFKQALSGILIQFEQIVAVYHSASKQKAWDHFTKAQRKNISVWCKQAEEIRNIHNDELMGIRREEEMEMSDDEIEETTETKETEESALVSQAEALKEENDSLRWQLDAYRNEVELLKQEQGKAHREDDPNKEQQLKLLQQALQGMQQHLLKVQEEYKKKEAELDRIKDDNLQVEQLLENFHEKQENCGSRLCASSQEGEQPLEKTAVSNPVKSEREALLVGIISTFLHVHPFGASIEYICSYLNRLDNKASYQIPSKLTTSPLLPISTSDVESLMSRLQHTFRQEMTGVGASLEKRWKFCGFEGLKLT
test-protocol: biochemical
pEC50: −log10 of the molar value.
reported-metric: pEC50

## Task Please state recorded pEC50 (tested on tNOX of 4T1 mouse mammary cells (Mus musculus, UniProt Q8R0Z2)) of "C[S@@+]([O-])CCCCN=C=S"
## Result ~3.00

====

target-or-test-system: tNOX from HeLa (Homo sapiens)
Construct: The cells were thawed at room temperature, resuspended and incubated at 37° C. for 1 h to release the protein
Sequence (Q16206 whole entry): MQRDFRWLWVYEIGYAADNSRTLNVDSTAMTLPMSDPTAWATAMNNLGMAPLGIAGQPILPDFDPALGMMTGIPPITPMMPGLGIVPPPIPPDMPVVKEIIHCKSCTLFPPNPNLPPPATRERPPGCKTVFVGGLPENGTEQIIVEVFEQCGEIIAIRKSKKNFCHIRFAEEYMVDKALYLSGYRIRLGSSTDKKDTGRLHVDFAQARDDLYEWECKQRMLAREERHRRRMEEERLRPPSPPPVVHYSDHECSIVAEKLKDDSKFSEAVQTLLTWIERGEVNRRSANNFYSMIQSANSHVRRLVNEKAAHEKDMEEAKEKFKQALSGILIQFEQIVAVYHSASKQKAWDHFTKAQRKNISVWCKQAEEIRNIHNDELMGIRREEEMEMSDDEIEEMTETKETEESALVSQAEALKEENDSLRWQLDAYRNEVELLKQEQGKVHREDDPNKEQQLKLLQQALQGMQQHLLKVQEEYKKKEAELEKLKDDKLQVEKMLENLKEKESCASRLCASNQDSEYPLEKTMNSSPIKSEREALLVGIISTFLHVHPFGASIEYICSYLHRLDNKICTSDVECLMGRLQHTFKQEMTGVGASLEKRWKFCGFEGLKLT
test-protocol: Spectrophotometric NADH oxidase assay, NOX activity from the HeLa cell surface
protocol-conditions: NOX activity from HeLa cell surface (FIGS. 1 and 2)
Procedure: HeLa S cells (grown in suspension) were collected by centrifugation and shipped frozen by a commercial supplier (Cellex Biosciences, Minneapolis, Minn.) In 0.1 m sodium acetate, pH 5, in a ratio of 1 mL packed cell volume to 1 mL acetate. The cells were thawed at room temperature, resuspended and incubated at 37° C. for 1 h to release the protein. The cells were removed by centrifugation at 37000 g for 60 min and the cell-free supernatants were refrozen and stored in 1 mL samples at −70° C.
reported-metric: EC50

## Task Which EC50 value is on record for "C[S@@+]([O-])CCCCN=C=S" ?
## Result ~1000 µM
